assayed.target: human TLR8 (Homo sapiens (Human), UniProt Q9NR97)
Sequence (Q9NR97 27-1041): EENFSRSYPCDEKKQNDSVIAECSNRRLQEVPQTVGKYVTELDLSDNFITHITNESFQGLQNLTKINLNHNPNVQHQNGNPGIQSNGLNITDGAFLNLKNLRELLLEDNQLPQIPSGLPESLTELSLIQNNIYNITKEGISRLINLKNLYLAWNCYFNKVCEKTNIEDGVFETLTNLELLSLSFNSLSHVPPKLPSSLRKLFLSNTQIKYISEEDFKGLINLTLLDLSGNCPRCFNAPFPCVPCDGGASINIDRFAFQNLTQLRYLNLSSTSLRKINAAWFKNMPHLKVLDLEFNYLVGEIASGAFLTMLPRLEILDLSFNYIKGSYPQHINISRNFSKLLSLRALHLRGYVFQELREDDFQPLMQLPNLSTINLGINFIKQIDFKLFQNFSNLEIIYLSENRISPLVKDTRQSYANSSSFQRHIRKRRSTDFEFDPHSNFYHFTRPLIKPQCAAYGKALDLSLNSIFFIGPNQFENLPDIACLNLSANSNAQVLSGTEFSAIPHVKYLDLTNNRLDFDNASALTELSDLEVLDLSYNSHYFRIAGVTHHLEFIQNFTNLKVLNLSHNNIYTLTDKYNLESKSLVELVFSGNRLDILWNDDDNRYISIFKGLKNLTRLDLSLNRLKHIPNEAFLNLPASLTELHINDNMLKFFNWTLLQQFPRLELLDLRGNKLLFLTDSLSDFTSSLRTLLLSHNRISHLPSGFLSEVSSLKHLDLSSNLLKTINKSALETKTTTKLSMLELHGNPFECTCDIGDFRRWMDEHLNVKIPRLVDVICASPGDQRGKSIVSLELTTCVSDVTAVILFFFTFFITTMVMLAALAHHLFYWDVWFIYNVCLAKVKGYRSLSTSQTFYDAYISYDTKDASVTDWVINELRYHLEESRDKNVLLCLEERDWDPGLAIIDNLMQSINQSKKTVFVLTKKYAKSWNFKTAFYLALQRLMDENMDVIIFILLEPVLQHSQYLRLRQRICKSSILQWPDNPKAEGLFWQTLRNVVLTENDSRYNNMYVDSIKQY
test.method.notes: TLR8 inhibition reporter assay (HEK-Blue cells, SEAP reporter, R848 stimulation);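 further: compounds tested from 0.05 nM to 50 µM, 22 h at 37 °C, SEAP measured with HEK-Blue Detection, inhibition relative to agonist plus DMSO versus a known inhibitor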
cond: read-out: TLR8 IC50, HEK-Blue cells overexpressing human TLR8, R848 15.9 μM
The compounds listed here are annotated with their pIC50.
Quick note: pIC50 means taking -log10 of the concentration in moles per liter.

Query: Determine its reported pIC50: Cc1cc(-c2[nH]c3ccc(C4CCN(CC(=O)N5CCCCC5C)CC4)cc3c2C(C)C)cc(C)n1 (centres unmarked)
Response: 7.81

Query: Determine its reported pIC50: Cc1cc(-c2[nH]c3ccc(C4CCN(C[C@@H]5CCNC5)CC4)cc3c2C(C)C)ccn1
Response: 8.60

Query: Determine its reported pIC50: Cc1cc(-c2[nH]c3ccc(C4CCN(C(=O)CN5CCC[C@H]5CO)CC4)cc3c2C(C)C)cc(C)n1
Response: 8.01

Query: Determine its reported pIC50: CCCNCC(=O)N1CCC(c2ccc3[nH]c(-c4cc(C)nc(C)c4)c(C(C)C)c3c2)CC1
Response: 7.95

Query: Determine its reported pIC50: CCc1c(-c2cc(Cl)ncc2F)[nH]c2ccc(C3CCN(C4CCN(CC(C)C)CC4)CC3)cc12
Response: 6.97

Query: Determine its reported pIC50: Cc1cc(-c2[nH]c3ccc(C4CCN(CC5CC5)CC4)cc3c2C2CC2)cc(C)n1
Response: 7.49

Query: Determine its reported pIC50: CCc1c(-c2ccnc(C)c2)[nH]c2c(F)cc(C3CCNCC3)cc12
Response: 6.04

Query: Determine its reported pIC50: Cc1cc(-c2[nH]c3ccc(C4CCN(C(=O)CN5CCNC(=O)C5)CC4)cc3c2C(C)C)cc(C)n1
Response: 7.26
